test system: intestinal alkaline phosphatase [Mus musculus]; assay: mouse intestinal phosphatase enzyme activation – biochemical, luminescence, uHTS, primary screen (AID 2805); details: muIAP, CDP-Star luminescence, 30 min; at 10 µM; 1 = vehicle-only enzyme signal, 0 = enzyme-free wells
Screen size: about 330,000 compounds; about 780 (0.24%) were called active.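 How the source made its calls: active means activation factor of at least 2 at 20 µM; inactive means the rest.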 This excerpt belongs to a sample that is enriched for actives.
Output constraint: value belongs to active, inactive

Ask: Record request — test call for "CC(C)c1nc(SCC(=O)NC(=O)NC(C)(C)C)n[nH]1"
Reply: inactive

Ask: // outcome(item) with item = "Cc1noc(C)c1S(=O)(=O)N(CC(=O)NCc1ccc(Cl)cc1)c1ccc2c(c1)OCO2"
Reply: inactive

Ask: Identify the outcome logged in this assay for the compound shown: "CCN(CC(=O)Nc1ccccc1C(=O)NC1CC1)Cc1cccs1"
Reply: inactive

Ask: Hey, what did the test say about "O=C(NCCN1CCOCC1)Nc1cccc(Cl)c1" ?
Reply: inactive

Ask: Field: outcome | Entry: CN1CCN(C(CNS(=O)(=O)c2cccs2)c2cccnc2)CC1 (stereo unspecified)
Reply: inactive

Ask: // outcome(item) with item = "Cc1cccc(CN2CCC(CNC(=O)Nc3ccc(F)c(Cl)c3)CC2)c1"
Reply: active

Ask: Test call, this compound: "COCCNC(=O)CCCN1C(=O)c2ccccc2Sc2ncccc21"
Reply: inactive

Ask: Can you look up the reported call for "S=C(NCc1ccco1)NCc1ccccc1Cl" for me?
Reply: inactive

Ask: Per the assay record, what outcome was assigned to "COc1cc(OC)cc(-c2nc3ccccc3c(=O)n2NC(=O)c2cccnc2Cl)c1" ?
Reply: inactive

Ask: GET /call?item= "CN(CCc1ccccn1)C(=O)c1ccc(OC2CCN(CCc3ccccc3)CC2)cc1" returns the recorded outcome of this test.
Reply: inactive

Ask: // outcome(item) with item = "O=C(NCc1ccc2c(c1)OCO2)C12CC3CC(CC(C3)C1)C2"
Reply: inactive

Ask: Record lookup: outcome of this test for "O=C(c1ccc(O)cc1)c1ccc(C(=O)O)c(C(=O)O)c1" ?
Reply: inactive

Ask: Assay result, entry Cc1ccccc1N1CCN(CCCN2C(=O)C3CCCCN3C2=O)CC1 (stereo unspecified) — outcome?
Reply: inactive

Ask: Check the results log: what was the call for "CC(=O)Nc1cccc(C(=O)OCN2C(=O)c3ccccc3C2=O)c1" ?
Reply: inactive

Ask: What did the test return for "CCN(C[C@H]1N[C@@](CC)(C(=O)OC)[C@H]2C(=O)N(Cc3ccccc3)C(=O)[C@@H]12)S(=O)(=O)c1ccc(C(F)(F)F)cc1" ?
Reply: inactive

Ask: Fill in: this test's call for "CC[C@]12c3[nH]c4ccc(Cl)cc4c3CCN1C(=O)[C@@H](CC(=O)NCCCOC)C[C@@H]2C(=O)N1CCN(C(=O)C2CC2)CC1" is ___
Reply: inactive

Ask: Recorded test call requested for "COc1ccc(S(=O)(=O)NCC(=O)NC2CC2)cc1OC"
Reply: inactive

Ask: Record request — test call for "COc1cc(CN2CCN(Cc3ccc(C)cc3)CC2)c([N+](=O)[O-])cc1OC"
Reply: inactive

Ask: // param item: "Cc1cccc(-c2oc3ccc(-c4ccc5c(c4)OCO5)cc3c2C#Cc2cncn2C)c1" ; yields the recorded call
Reply: inactive

Ask: What call does the record list for "COc1cc(NC(=S)NCCSc2ccc(C)cc2)cc(OC)c1" ?
Reply: active

Ask: Entry "COCCNC(=O)c1ccc(S(=O)(=O)c2ccc(Cl)cc2)c(NC(C)=O)c1" : call = ?
Reply: inactive

Ask: For "CCCCCCC12CCC(C(=O)O)(CC1)CC2" , what call appears in the results of this test?
Reply: inactive

Ask: Tell me the recorded outcome of this test for "COCCCNC(=S)NCCNc1nc2cc(C)c(C)cc2cc1C#N" .
Reply: inactive

Ask: For "COc1ccc(N(C)C(=O)C2CCN(S(=O)(=O)c3cccc4nsnc34)CC2)cc1" , what call appears in the results of this test?
Reply: inactive

Ask: State the result this test recorded for "COc1ccc(-n2nc(C(=O)NCC(=O)N3CCN(c4ccccc4OC)CC3)c3ccccc3c2=O)c(OC)c1" .
Reply: inactive

Ask: Which result was noted for this compound in the test: "C#CCOCCOCCOCCNc1nc(N2CCN(C(=O)[C@H](C(C)C)n3cc(CCO)nn3)CC2)nc(N2CCN(C(=O)[C@H]([C@@H](C)CC)n3cc(CCCN=C(N)N)nn3)CC2)n1"
Reply: inactive

Ask: Per the assay record, what outcome was assigned to "CCc1cc2c(=O)n(-c3ccccc3)c(SCC(=O)O)nc2s1" ?
Reply: inactive

Ask: Lab log entry: "Fc1ccccc1COc1ccccc1CNCc1ccncc1" — outcome as called in the assay?
Reply: inactive

Ask: Recorded test call requested for "O=C(NCC1CCN(Cc2ccccc2Cl)CC1)Nc1cccc(Cl)c1"
Reply: active

Ask: Called result for "COc1cccc(C(=O)NCCSc2ccc(Br)cc2)c1"
Reply: inactive

Ask: Please share the test call associated with "S=C(NCc1ccc(Cl)cc1)NC12CC3CC(CC(C3)C1)C2" .
Reply: active

----------
tested on: intestinal alkaline phosphatase [Mus musculus]; assay: mouse intestinal phosphatase enzyme activation – biochemical, luminescence, uHTS, primary screen (AID 2805); details: muIAP, CDP-Star luminescence, 30 min; at 10 µM; hits give high values; 1 = vehicle-only enzyme signal, 0 = enzyme-free wells
The campaign covered roughly 330,000 compounds. About 780 (0.24%) were called active. Shown is part of a subset that was picked to be rich in actives.
I'd be grateful if you could share measured activation factor for these entries.
Give the figure only, with no unit attached.

Ask: Entry "COc1c(O)cccc1-c1nnn(CCC(=O)OCC(=O)c2ccccc2)n1" : reported activation factor = ?
Reply: 0.984

Ask: Entry under review: "Cc1cccc(NC(=S)NC23CN4CN(CN(C4)C2)C3)c1" . Reported activation factor?
Reply: 0.962

Ask: What value of activation factor has been recorded for this entry: "N#Cc1c(C(F)(F)F)cc(-c2cccs2)nc1N1CCCCC1"
Reply: 1.01

Ask: Using the record for "O=C(NCc1cccnc1)c1cnc2ccccc2n1" , report its activation factor.
Reply: 0.965

Ask: Look up activation factor for this molecule: CC(C)c1ccc(NC(=S)NC2CC3C=CC2C3)cc1 (stereo unspecified)
Reply: 2.76

Ask: Could you tell me which activation factor is on file for O=C1CCC([N+](=O)[O-])C(c2ccccc2Br)N1 (stereo unspecified) ?
Reply: 1.03

Ask: # get_value(readout='activation factor', item= O=C(NCC1CCCO1)c1ccccc1-c1nc(-c2ccccc2Cl)no1 (stereo unspecified) )
Reply: 0.926

Ask: Field request: activation factor | item: Cc1cc(=O)n2nc(N3CCCC(C(=O)N4CCN(C)CC4)C3)sc2n1 (stereo unspecified)
Reply: 0.986

Ask: Fill blank: measured activation factor of the molecule "c1ccc(CCN2CN=C(Nc3nc4ccccc4o3)NC2)cc1" is ____.
Reply: 0.958

Ask: If you can, please state the reported activation factor value of "COc1cccc(NC(=O)CN2CCN(CC(=O)Nc3ccccc3Cl)CC2)c1" .
Reply: 0.978

Ask: Need activation factor of "C=C(Br)Cn1c(CCCC)nc2ccccc21" , thanks.
Reply: 0.968

Ask: // query activation factor value for entry "S=C(Nc1ccc(Br)cc1)NC1CCN(Cc2ccccc2)CC1"
Reply: 1.46

Ask: // query activation factor value for entry "O=S(=O)(NCCCc1ccccc1)c1ccc(Br)cc1"
Reply: 1.03

Ask: Entry CCc1ccc(NC(=O)NC(C)c2ccc3c(c2)OCO3)cc1 (stereo unspecified) has what activation factor?
Reply: 2.38

Ask: Which activation factor is listed for "O=C(CN1CCC(O)(c2cccc(C(F)(F)F)c2)CC1)NCCc1ccccc1" ?
Reply: 0.933

Ask: Return reported activation factor; argument: "CN(C)S(=O)(=O)c1cccc(NC(=O)Cc2ccsc2)c1"
Reply: 1.06

Ask: What activation factor value was documented for this molecule, "O=C(CN1CCC(NC(=O)Nc2ccccc2)CC1)Nc1cccc([N+](=O)[O-])c1" ?
Reply: 1.02

Ask: # input molecule: CC(NC(=O)Nc1ccc2c(c1)OCO2)c1ccncc1 (stereo unspecified) ; wanted: its activation factor
Reply: 1.02

Ask: I have this molecule here, "C/C(CC(=O)Nc1cccc(F)c1)=N\NC(=O)C(=O)NC1CCCCC1" , and I need its recorded activation factor.
Reply: 0.807

Ask: Recorded activation factor for CCOc1ccc(C(CC(=O)O)NC(=O)Cc2ccccc2)cc1OC (stereo unspecified) , please?
Reply: 0.993

Ask: Need activation factor, item "CC(C)c1ccc(NC(=O)NC2CCCCC2)cc1"
Reply: 1.77

Ask: I'd like to know its activation factor. The molecule in question is COc1cccc(NC(=O)C2CCCN2C(=O)OCc2ccccc2)c1 (stereo unspecified)
Reply: 0.929

Ask: Param item = "CC1(C)Cc2cccc(OCC(=O)N3CCN(c4ccc([N+](=O)[O-])cc4)CC3)c2O1" ; retrieve measured activation factor.
Reply: 0.924

Ask: Entry "O=C(Cn1ncc2c3ccccc3n(Cc3ccccc3)c2c1=O)NCCCN1CCOCC1" has what activation factor?
Reply: 0.993

Ask: Form field: reported activation factor of "CCN(CC)N=Nc1cccc(NC(C)=O)c1"
Reply: 0.943

Ask: Entry under review: "CCOC(=O)c1cc(C)sc1NC(=O)C1CCC1" . Reported activation factor?
Reply: 1.01

Ask: I am curious: what activation factor value has been reported for "O=C(O)c1cc(S(=O)(=O)Nc2ccc3cn[nH]c3c2)ccc1Br" ?
Reply: 0.965

Ask: # input molecule: "Cc1cccc(NC(=S)NCCN(C2CCCCC2)C2CCCC2)c1" ; wanted: its activation factor
Reply: 2.13

Ask: Item under review: CCCN(CC1COc2ccccc2O1)C(=S)Nc1ccc(C)cc1 (stereo unspecified) . Reported activation factor?
Reply: 1.14

Ask: Given the entry "CC1(C)CC(=O)c2sc(N)nc2C1" , report its measured activation factor.
Reply: 0.979

Ask: Please look up its activation factor: "CCN(CC)Cc1nc2sc(C)c(C)c2c(=O)[nH]1"
Reply: 0.952

Ask: # lookup: activation factor of "CN(C)C(=O)N1CCNCC1"
Reply: 0.933

Ask: Given S=C(NCC1COc2ccccc2O1)Nc1ccc(Br)cc1 (stereo unspecified) , state its recorded activation factor.
Reply: 3.2

Ask: Consider the molecule "CS(=O)(=O)Nc1ccc(C(=O)N2CCCC2)cc1" and give its measured activation factor.
Reply: 0.947

Ask: Requested read-out: activation factor. Entry: "C=CCCC(=O)Nc1nc(C)c(-c2csc(Nc3ccc(Cl)cc3)n2)s1"
Reply: 0.878

Ask: Which activation factor is listed for "O=C(CSc1nnc(Cn2cnc3ccccc32)o1)c1ccccc1" ?
Reply: 0.997
